Assay: activators of NF-kB expression in neurons, primary screen, cell-based, HTS (AID 1239)
Settings: human neuronal cells, NF-kB reporter expression; at 12.5 µM
Hit rate of the full screen: of about 190,000 compounds, about 3,100 (1.6%) were called active. No stated cut-off is given here; in the data, active means fold change above about 3.3; inconclusive means no clear call, values can overlap the other calls; inactive means below that. For the sample, actives were picked, then their nearest neighbours and some compounds at random.
Allowed answers: t = active, f = inactive

>>> df
                        structure_as_smiles  category
0           Cc1nc(-c2ccc(Cl)cc2)sc1C(=O)CBr         f
1       Cc1cc(C)nc(NNC2=CC(=O)CC(C)(C)C2)n1         f
2  CN1CCN(NC(=O)c2ccc(S(=O)(=O)N3CCCCCC3)cc2)CC1         f

Please let me know the test result on file for COc1ccc(NC(C)=O)cc1NC(=O)CN1CCN(C2c3ccccc3-c3ccccc32)CC1 .
t

Assay result, entry CCOc1ccc(C(C)=O)cc1CSc1nnc(-c2ccncc2)n1CCOC — outcome?
f

Assay result, entry Cn1cc(Cl)c(C(=O)NNC(=S)Nc2cccc(Cl)c2)n1 — outcome?
f

----------
Assay: activators of NF-kB expression in neurons, primary screen, cell-based, HTS (AID 1239)
Conditions: human neuronal cells, NF-kB reporter expression; at 12.5 µM
Hit rate of the full screen: of about 190,000 compounds, about 3,100 (1.6%) were called active. No stated cut-off is given here; in the data, active means fold change above about 3.3; inconclusive means no clear call, values can overlap the other calls; inactive means below that. This excerpt belongs to a sample that is enriched for actives.
Hi there, use one of these labels in your reply, thanks! active, inactive

Outcome? CCN(C(=O)c1ccc(Br)cc1)c1ccccc1
inactive

Would you mind telling me which call this test gave O=C(NCCc1ccccc1)c1ccc(NC2=NC3CS(=O)(=O)CC3S2)cc1 (configuration not stated) ?
inactive

Hi, sorry to bother you, what did the test record for CCn1nc(C)c(CN2CCN(Cc3ccc(OC)c(C)c3C)C(CCO)C2)c1C (configuration not stated) ?
inactive

# fetch the recorded call for O=C(NCCCn1ccnc1)c1cc(-c2ccccc2)on1 here
active

Just curious, what result did O=C(c1cnn(-c2ccc(Cl)cc2)c1)c1ccccc1O get here?
active

What did the test return for Cc1nn(-c2ccccc2)c2c1C(c1cccc([N+](=O)[O-])c1)N(c1ccccc1)C(=O)N2 (configuration not stated) ?
inactive

For this compound, state the assay outcome: Cc1ccc(-c2cn(S(=O)(=O)c3cccc([N+](=O)[O-])c3)nc2N)cc1
inactive

Per the assay record, what outcome was assigned to O=C(Nc1ccc(NC(=O)c2cccs2)cn1)c1ccco1 ?
active

Entry CN(C)C(CNC(=O)c1cccc(C#N)c1)c1ccco1 (configuration not stated) : call = ?
inactive

In this assay, the call recorded for COc1ccc(C(=O)Nc2ccc(S(=O)(=O)NC(C)C)cc2)cc1 was what?
inactive

How did this test come out for CCC1C/C(=C/c2cccs2)C(=O)/C(=C/c2cccs2)C1 (configuration not stated) ?
inactive

Any idea what this test logged for Cc1ccc(-n2cc3ccc([N+](=O)[O-])cc3n2)cc1 ?
active

Returns: the outcome recorded for OCC1(Cc2ccccc2C(F)(F)F)CCN(Cc2cccc3cnccc23)CC1 in this assay.
inactive

----------
Test: activators of NF-kB expression in neurons, primary screen, cell-based, HTS (AID 1239)
Settings: human neuronal cells, NF-kB reporter expression; at 12.5 µM; hits give high values
In all, about 190,000 compounds went through this assay and about 3,100 (1.6%) were called active. What follows is part of a selection rich in actives, with near analogues and random picks from the rest.
Parameter threshold = 1. Response is 1 (yes) when fold change meets or exceeds it, else 0 (no).

// below: answered molecules
In [3]: df
Out[3]:
                                   molecule  category
0  COc1ccc(CN2CCCC(CNC(=O)c3ccc(F)cc3)C2)cc1OC (stereo not drawn)   1 (yes)
1  CCN(CC)CCNS(=O)(=O)c1ccc(/C=C/C(=O)O)cc1   1 (yes)
2  CC(O)CNCCOc1cccc(Oc2ccccc2)c1 (stereo not drawn)   1 (yes)
3    O=C(COC(=O)CNC(=O)c1ccccc1F)NCC(F)(F)F   1 (yes)
4  COc1ccc(CCNc2nc(-c3cccc(NC(C)=O)c3)cs2)cc1OC    0 (no)
5  CC(=O)C1(C)N(O)C(C)(C)C(c2cccs2)=[N+]1[O-] (stereo not drawn)    0 (no)
6   NS(=O)(=O)c1ccc(Nc2nc(-c3ccccc3)cs2)cc1   1 (yes)
7  C=CCN1C2CCCC1CC(NC(=S)Nc1cccc(OC)c1)C2 (stereo not drawn)   1 (yes)

Decide: is the reported value of fold change for CC(C)(C)n1ncc2c(=O)n(Cc3ccc(Cl)cc3)cnc21 equal to or greater than 1?
1 (yes)

Kindly determine if fold change recorded for COc1ccc(N2CCN(c3ccc([N+](=O)[O-])cc3Cl)CC2)cc1 is above or exactly 1.
0 (no)

Has COc1ccc2nc(Nc3nc(-c4cc5ccccc5oc4=O)cs3)sc2c1 a recorded fold change greater than or equal to 1?
1 (yes)

Reported fold change reaches at least 1 for CSc1ccc(/C=N/NC(=O)c2cccc(Cl)c2)cc1 ?
1 (yes)

Quick check, fold change >= 1? CN1CCCC(OC(=O)COc2ccc(Br)cc2)C1 (stereo not drawn)
1 (yes)

Decide: fold change of COc1ccc(-c2csc(Cc3nc(O)cs3)n2)cc1 >= 1?
1 (yes)

Exam item: decide whether the reported fold change for O=C(O)/C=C/c1cn(-c2ccccc2)nc1-c1cccs1 is at least 1.
1 (yes)

Given COc1ccc(-c2csc(NC(=O)CCCc3cccs3)n2)cc1 , state whether its fold change is at least 1.
0 (no)

Please tell me: is the molecule CCOC1CS(=O)(=O)CC1OCC (stereo not drawn) at or over 1 in terms of fold change?
1 (yes)

Hi, just wondering whether COc1ccc(-c2csc(Nc3ccc(O)cc3)n2)cc1 shows fold change of 1 or higher.
1 (yes)

Answer whether fold change of COc1ccc(-c2cn3ccsc3n2)cc1 is greater than or equal to 1.
1 (yes)

Please check the record COc1ccc(Nc2nc(-c3ccccc3)cs2)cc1 and state if its fold change is at or above 1.
1 (yes)

Evaluate Cc1cccc(NC(=S)NCCc2ccc(F)cc2)c1C : fold change at minimum 1?
1 (yes)

Answer whether fold change of Oc1ccc(-c2csc(Nc3cccnc3)n2)cc1 is greater than or equal to 1.
1 (yes)

Source of measurements: PubChem BioAssay AID1239
